# MEASURED ON: UniProtKB P81908
# Sequence (P81908 whole entry): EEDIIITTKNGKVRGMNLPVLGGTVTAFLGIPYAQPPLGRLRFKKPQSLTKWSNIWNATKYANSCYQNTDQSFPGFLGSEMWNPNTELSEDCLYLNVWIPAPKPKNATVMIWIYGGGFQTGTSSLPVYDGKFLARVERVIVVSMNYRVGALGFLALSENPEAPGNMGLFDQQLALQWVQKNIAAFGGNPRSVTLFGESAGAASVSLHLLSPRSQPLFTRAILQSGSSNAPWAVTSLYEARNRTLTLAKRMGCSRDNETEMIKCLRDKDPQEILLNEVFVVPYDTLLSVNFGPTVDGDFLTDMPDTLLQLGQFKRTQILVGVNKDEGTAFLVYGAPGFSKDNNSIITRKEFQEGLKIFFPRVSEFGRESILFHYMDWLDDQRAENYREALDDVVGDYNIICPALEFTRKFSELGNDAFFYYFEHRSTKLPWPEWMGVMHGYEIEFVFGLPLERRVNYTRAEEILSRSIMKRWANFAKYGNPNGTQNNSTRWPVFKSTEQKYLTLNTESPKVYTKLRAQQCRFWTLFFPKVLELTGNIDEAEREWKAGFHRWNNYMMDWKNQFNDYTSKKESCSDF
# TEST: Mixed type inhibition of equine serum BuChE by Dixon plot analysis
Activity calls are given as the source filed them. The calls are words filed in the database; no cut-off is given here.
MEASURED METRIC: inhibition mechanism

[Q] Tell me its inhibition mechanism on UniProtKB P81908: CC(=O)O[C@H]1CC[C@]2(C)[C@H]3C(=O)C[C@H]4[C@@H]5C[C@@](C)(C(=O)N6CC7CC[N+](C)(CC7)C6)CC[C@]5(C)CC[C@@]4(C)[C@]3(C)CC[C@H]2C1(C)C
[A] Active

[Q] Give inhibition mechanism only, for CC(=O)O[C@H]1CC[C@]2(C)[C@H]3CC=C4[C@@H]5CC(C)(C)CC[C@]5(C(=O)N5CC6CC[N+](C)(CC6)C5)CC[C@@]4(C)[C@]3(C)CC[C@H]2C1(C)C , using UniProtKB P81908 data.
[A] Active

[Q] Report measured inhibition mechanism on UniProtKB P81908; entry: CC(=O)O[C@H]1CC[C@]2(C)[C@H]3CC[C@H]4[C@@H]5[C@H](C(C)=O)CC[C@]5(C(=O)N5CC6CC[N+](C)(CC6)C5)CC[C@@]4(C)[C@]3(C)CC[C@H]2C1(C)C
[A] Active

[Q] Answer with inhibition mechanism of CC(=O)O[C@H]1CC[C@]2(C)[C@H]3CC=C4[C@@H]5[C@@H](C)[C@H](C)CC[C@]5(C(=O)N5CC6CC[N+](C)(CC6)C5)CC[C@@]4(C)[C@]3(C)CC[C@H]2C1(C)C measured for UniProtKB P81908.
[A] Active

Here's the next entry for you.
[Q] Specify the recorded inhibition mechanism for C=C(C)[C@@H]1CC[C@]2(C(=O)N3CC4CC[N+](C)(CC4)C3)CC[C@]3(C)[C@@H](CC[C@@H]4[C@@]5(C)CC[C@H](OC(C)=O)C(C)(C)[C@@H]5CC[C@]43C)[C@H]12 , system: UniProtKB P81908.
[A] Active
